Sourced from ChEMBL document CHEMBL4118104

EXPERIMENT_DESCRIPTION: Oral bioavailability in Sprague-Dawley rat at 30 mg/kg by LC-MS/MS analysis
Assay type: ADME, organism-based
REPORTED_CONDITIONS: in vivo
RESULT_TYPE: bioavailability (%)
Give the value, in units of %, as a plain number.

Query :: If you can, please state the reported bioavailability value of Cl.Oc1ccc2[nH]c(-c3ccc4c(Cl)cc(Cl)c(O)c4n3)cc2c1 .
Result :: 14.1

---

EXPERIMENT_DESCRIPTION: Half life in Sprague-Dawley rat liver microsomes at 100 uM up to 180 mins by HPLC-UV analysis
REPORTED_CONDITIONS: liver microsomes
Answer each item with its documented half-life at 3 h, 100 µM.
Give the value, in units of h, as a plain number.

Query :: If you can, please state the reported half-life at 3 h, 100 µM value of Cl.Oc1c(Cl)cc(Cl)c2ccc(-c3cc4cc(Cl)ccc4[nH]3)nc12 .
Result :: 3.26

Query :: If you can, please state the reported half-life at 3 h, 100 µM value of Cl.Oc1ccc2[nH]c(-c3ccc4c(Cl)cc(Cl)c(O)c4n3)cc2c1 .
Result :: 1.95

Query :: If you can, please state the reported half-life at 3 h, 100 µM value of Cl.Oc1c(Cl)cc(Cl)c2ccc(-c3cc4cc5c(cc4[nH]3)OCO5)nc12 .
Result :: 6.49
